Test: modulators of S6 phosphorylation in cells, primary screen, cell-based, A549, cytoblot, luminescence, serum-stimulated (AID 1158);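 further: serum-stimulated A549 lung adenocarcinoma cells; signal is phosphorylated S6 detected by cytoblot immunostaining with HRP secondary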
Conditions: A549 phospho-S6 cytoblot, 5 h, higher = more signal
Overview of recorded z-score for various compounds
Simply state the number, no unit and no words.

Compound	Meas value
CC(CCN1CCc2nc(-c3ccccc3)c(-c3ccccc3)cc2C1)=NOC[C@@H](O)COCc1ccco1	0.615

Entry CCOC(=O)[C@H](Cc1ccccc1)NC(=O)CCC1CC(OC(=O)NCc2cccc3ccccc23)CC2(CCCC(COC(=O)NCc3cccc(C(F)(F)F)c3)O2)O1 (some centres undefined) has what z-score?
-0.283

Entry O=c1n(Cc2cc3c(cc2Cl)OCO3)c(=O)n2n1CC[C@@H]1C(=NOCc3ccccc3)[C@H]3O[C@H]3[C@@H](O)[C@@H]12 has what z-score?
1.63

Entry O=C(NN=C1C[C@@H](O)[C@@H](O)[C@@H]2[C@@H]3C(=O)N(C4CCCCC4)C(=O)[C@@H]3CC[C@@H]12)OCc1ccccc1 has what z-score?
-0.146
